protocol_notes: Primary screening of photostability of the CyNA library (time-course fluorescence, 8 h)
Format: physicochemical
Parameters: unit: %
protocol_conditions: 10 μM in HEPES 100 mM pH 7.4, 2% DMSO
Known F/Fo, fluorescent intensity at 8 hours vs 0 hours of a selection of compounds
quantity_measured: F/Fo, fluorescent intensity at 8 hours vs 0 hours

> print(dat)
                                    compound  measurement
 1  CCCN1/C(=C/C=C2\CCCC(/C=C/C3=[N+](CCC)c4ccccc4C3(C)C)=C2N(CC(C)C)C(C)=O)C(C)(C)c2ccccc21           30
 2  CCCN1/C(=C/C=C2\CCCC(/C=C/C3=[N+](CCC)c4ccccc4C3(C)C)=C2N(CCc2ccc(OC)c(OC)c2)C(C)=O)C(C)(C)c2ccccc21           99
 3  CCCN1/C(=C/C=C2\CCCC(/C=C/C3=[N+](CCC)c4ccccc4C3(C)C)=C2N(CCCN2CCCCC2C)C(C)=O)C(C)(C)c2ccccc21.[I-] (stereo not drawn)          100
 4  CCCN1/C(=C/C=C2\CCCC(/C=C/C3=[N+](CCC)c4ccccc4C3(C)C)=C2N(CCc2cccc(OC)c2)C(C)=O)C(C)(C)c2ccccc21           63
 5  CCCN1/C(=C/C=C2\CCCC(/C=C/C3=[N+](CCC)c4ccccc4C3(C)C)=C2N(Cc2ccccc2Cl)C(C)=O)C(C)(C)c2ccccc21           98
 6  CCCN1/C(=C/C=C2\CCCC(/C=C/C3=[N+](CCC)c4ccccc4C3(C)C)=C2N(Cc2ccc(OC)cc2OC)C(C)=O)C(C)(C)c2ccccc21 [CyNA-181]           66
 7  CCCN1/C(=C/C=C2\CCCC(/C=C/C3=[N+](CCC)c4ccccc4C3(C)C)=C2N(CCc2cccc(F)c2)C(C)=O)C(C)(C)c2ccccc21           83
 8  CCCN1/C(=C/C=C2\CCCC(/C=C/C3=[N+](CCC)c4ccccc4C3(C)C)=C2N(Cc2ccc(F)cc2)C(C)=O)C(C)(C)c2ccccc21           85
 9  CCCN1/C(=C/C=C2\CCCC(/C=C/C3=[N+](CCC)c4ccccc4C3(C)C)=C2N(CCN2CCOCC2)C(C)=O)C(C)(C)c2ccccc21           90
10  CCCN1/C(=C/C=C2\CCCC(/C=C/C3=[N+](CCC)c4ccccc4C3(C)C)=C2N(Cc2cc(OC)c(OC)c(OC)c2)C(C)=O)C(C)(C)c2ccccc21           83
11  CCCN1/C(=C/C=C2\CCCC(/C=C/C3=[N+](CCC)c4ccccc4C3(C)C)=C2N(CC)C(C)=O)C(C)(C)c2ccccc21.[I-]          100
12  CCCN1/C(=C/C=C2\CCCC(/C=C/C3=[N+](CCC)c4ccccc4C3(C)C)=C2N(CCc2ccc(C)cc2)C(C)=O)C(C)(C)c2ccccc21.[I-]           64
